protocol_details: Three-treatment crossover pharmacokinetics of IN nalmefene, three dosing regimens (Example 13)
test_conditions: human, plasma, other: intranasal (IN spray), 6 mg, AUC0-20 min, mean, Treatment C (T3) 6 mg in one nostril
property_name: AUC(0-t)

Prompt line: # get_value(readout='AUC(0-t)', item= C=C1CC[C@@]2(O)[C@H]3Cc4ccc(O)c5c4[C@@]2(CCN3CC2CC2)[C@H]1O5 )
Response line: 3.53 ng·h/mL

###

protocol_details: Three-treatment crossover pharmacokinetics of IN nalmefene, three dosing regimens (Example 13)
test_conditions: human, plasma, other: intranasal (IN spray), 6 mg, AUC0-10 min, mean, Treatment C (T3) 6 mg in one nostril
property_name: AUC(0-t)

Prompt line: I have this compound here, C=C1CC[C@@]2(O)[C@H]3Cc4ccc(O)c5c4[C@@]2(CCN3CC2CC2)[C@H]1O5 [Nalmefene] , and I need its recorded AUC(0-t).
Response line: 0.988 ng·h/mL

###

protocol_details: Two-period crossover pharmacokinetics of nalmefene 3 mg IN vs 1.0 mg IM (Example 12)
test_conditions: human, plasma, intramuscular, 1 mg, Median plasma concentration, Treatment B 1.0 mg IM; […]
property_name: concentration at 12 h
Field: value (include unit after the number)

Prompt line: If you can, please state the reported concentration at 12 h value of C=C1CC[C@@]2(O)[C@H]3Cc4ccc(O)c5c4[C@@]2(CCN3CC2CC2)[C@H]1O5 .
Response line: 0.516 ng/mL

###

protocol_details: Three-treatment crossover pharmacokinetics of IN nalmefene, three dosing regimens (Example 13)
test_conditions: human, plasma, other: intranasal (IN) spray, 3 mg, […], Median, T1 (3 mg IN, one spray in one nostril); time 0.0416
property_name: concentration at 2.5 min (ng/mL)
Just the number please, in ng/mL, no unit attached.

Prompt line: concentration at 2.5 min lookup needed for C=C1CC[C@@]2(O)[C@H]3Cc4ccc(O)c5c4[C@@]2(CCN3CC2CC2)[C@H]1O5 , thanks.
Response line: 0.362

###

protocol_details: Three-treatment crossover pharmacokinetics of IN nalmefene, three dosing regimens (Example 13)
test_conditions: human, plasma, other: intranasal (IN) spray, 3 mg, […], Max, T1 (3 mg IN, one spray in one nostril); time 2.00
property_name: concentration at 2 h (ng/mL)
Number only, in ng/mL; omit the unit.

Prompt line: Given the compound C=C1CC[C@@]2(O)[C@H]3Cc4ccc(O)c5c4[C@@]2(CCN3CC2CC2)[C@H]1O5 , what is its reported concentration at 2 h?
Response line: 7.64

###

protocol_details: Three-treatment crossover pharmacokinetics of IN nalmefene, three dosing regimens (Example 13)
test_conditions: human, plasma, other: intranasal, 3 mg, […], Min, T1 (3 mg IN, one spray in one nostril); time 0.0833
property_name: concentration at […] (ng/mL)
Express your answer in ng/mL, writing the number without its unit.

Prompt line: Look up concentration at […]: C=C1CC[C@@]2(O)[C@H]3Cc4ccc(O)c5c4[C@@]2(CCN3CC2CC2)[C@H]1O5 [Nalmefene]
Response line: 0.319

###

protocol_details: Two-period crossover pharmacokinetics of nalmefene 3 mg IN vs 1.0 mg IM (Example 12)
test_conditions: human, plasma, im, 1 mg, Tmax, Treatment B: IM 1.0 mg nalmefene hydrochloride; plasma; Geo. Mean, n=68
property_name: Tmax (min)
// note: answer is a bare numeric in min

Prompt line: Look up Tmax for this molecule: C=C1CC[C@@]2(O)[C@H]3Cc4ccc(O)c5c4[C@@]2(CCN3CC2CC2)[C@H]1O5 [Nalmefene]
Response line: 36.2
